Each recorded value in this set is attributed to the supplement of paper PMC6757056.

B1: library; a variant is named by its letters at N, in order (parent)
chain: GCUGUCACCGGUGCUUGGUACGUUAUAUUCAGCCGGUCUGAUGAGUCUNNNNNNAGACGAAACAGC

# Variants of: B1
# Test name: normalized RNA/DNA level with ligand (relative to sTRSVctl = 100) (log10 (% of sTRSVctl)); HEK293T overexpressing SLC46A1; ligand concentration (+) RNA-Seq: 6 mM; higher = less ribozyme self-cleavage, higher mRNA level
# Test context: with (6R,S)-folinic acid; ligand present: yes
Documented normalized RNA/DNA level with ligand (log10) across a set of variants
// return a plain number; no unit text

The examples below pair each entry with its known result.
- Variant id: "UACGAC"
  Value reported: 2.01
- Variant id: "GCUUUA"
  Value reported: 1.98
- Variant id: "GGCGAU"
  Value reported: 2.04

Data request, read-out normalized RNA/DNA level with ligand (log10), for GGGUUG
2.05

Data request, read-out normalized RNA/DNA level with ligand (log10), for GAGCCC
2.02

Data request, read-out normalized RNA/DNA level with ligand (log10), for CAGUGC
2

Data request, read-out normalized RNA/DNA level with ligand (log10), for AAAGAA
1.99

Data request, read-out normalized RNA/DNA level with ligand (log10), for GGCCGU
2.02

Data request, read-out normalized RNA/DNA level with ligand (log10), for UCCGAG
1.99
